Target Of Assay: human 5-HT2C receptor (Homo sapiens)
Construct: expressed in transfected cells; host or cells: HeLa (HeLa-5-HT2C cell line)
Assay Details: Ca2+ mobilization in HeLa h5-HT2C cells
Assay type: cell-based
Particulars: from EC50 values, Table 2
Each entry below carries its recorded Selectivity 5-HT2C/2A (functional, in parentheses).
Hey, just send me the number, nothing else.

smiles_code=COc1ccc2[nH]cc(CCNCc3ccccc3OC)c2c1 result_value=0.53

Task: Given COc1ccccc1CNCCc1c[nH]c2ccccc12 , respond with its Selectivity 5-HT2C/2A (functional, in parentheses).
Output: 43.7

Task: Give Selectivity 5-HT2C/2A (functional, in parentheses) for Brc1ccccc1CNCCc1c[nH]c2ccccc12
Output: 9.55

Task: Provide Selectivity 5-HT2C/2A (functional, in parentheses) value for the following compound: COc1ccc2[nH]cc(CCNCc3ccccc3Br)c2c1
Output: 1.07

Task: // fetch Selectivity 5-HT2C/2A (functional, in parentheses) given entry Oc1ccc(F)cc1CNCCc1c[nH]c2ccccc12
Output: 2.88

###

Target Of Assay: human 5-HT2C receptor (Homo sapiens, UniProt P28335)
Construct: expressed in transfected cells; host or cells: HeLa (HeLa-5-HT2C cell line)
Sequence (P28335 33-458): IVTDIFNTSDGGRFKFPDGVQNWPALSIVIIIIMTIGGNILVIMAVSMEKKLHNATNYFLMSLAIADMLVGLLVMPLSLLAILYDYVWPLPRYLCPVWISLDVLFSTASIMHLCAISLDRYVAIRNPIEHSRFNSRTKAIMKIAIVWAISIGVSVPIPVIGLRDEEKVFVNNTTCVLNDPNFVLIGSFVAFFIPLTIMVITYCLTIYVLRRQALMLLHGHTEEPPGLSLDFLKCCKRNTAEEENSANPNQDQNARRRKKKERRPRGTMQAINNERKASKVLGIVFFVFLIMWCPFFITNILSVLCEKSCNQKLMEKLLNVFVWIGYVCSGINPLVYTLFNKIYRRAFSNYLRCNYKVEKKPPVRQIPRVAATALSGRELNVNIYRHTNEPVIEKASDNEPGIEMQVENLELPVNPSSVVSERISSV
Assay Details: Ca2+ mobilization in HeLa h5-HT2C cells
Type: cell-based
Particulars: HeLa; read-out: 5-HT2C % Emax
Measured Attribute: Emax
Note to self: number, then unit, no commentary.

Consider the following illustrative entries.
compound="Clc1cccc(CNCCc2c[nH]c3ccccc23)c1 [Compound 10]" target_of_assay="human 5-HT2C receptor (Homo sapiens, UniProt P28335)" result_value=117%
compound="COc1ccc2[nH]cc(CCNCc3ccccc3Br)c2c1 [Compound 40]" target_of_assay="human 5-HT2C receptor (Homo sapiens, UniProt P28335)" result_value=105%
compound="Oc1ccc(Br)cc1CNCCc1c[nH]c2ccccc12 [Compound 26]" target_of_assay="human 5-HT2C receptor (Homo sapiens, UniProt P28335)" result_value=108%
compound="COc1ccc(OC)c(CNCCc2c[nH]c3ccccc23)c1 [Compound 29]" target_of_assay="human 5-HT2C receptor (Homo sapiens, UniProt P28335)" result_value=118%
compound="COc1ccc2[nH]cc(CCNCc3ccccc3)c2c1 [Compound 37]" target_of_assay="human 5-HT2C receptor (Homo sapiens, UniProt P28335)" result_value=113%

Task: Give the reported Emax for this compound. COc1ccc2[nH]cc(CCNCc3ccccc3OC)c2c1 [Compound 38]
Output: 88.7%

Task: Note down Emax recorded for Oc1cccc(F)c1CNCCc1c[nH]c2ccccc12 [Compound 34]
Output: 91.7%

Task: Supply reported Emax belonging to this compound: NCCc1c[nH]c2ccccc12 [Tryptamine]
Output: 108%

Task: Entry COc1ccc2[nH]cc(CCNCc3ccccc3Cl)c2c1 [Compound 39] needs its Emax filled in; supply it.
Output: 106%

Task: Give the value of Emax reported for the following: Oc1ccccc1CNCCc1c[nH]c2ccccc12 [Compound 2]
Output: 85.8%

Task: Note Emax for the compound shown: COc1cccc(CNCCc2c[nH]c3ccccc23)c1OC [Compound 20]
Output: 117%

Task: Determine from records and report Emax for Clc1ccccc1CNCCc1c[nH]c2ccccc12 [Compound 5]
Output: 87.1%

###

Target Of Assay: human 5-HT2B receptor (Homo sapiens)
Sequence (P41595 whole entry): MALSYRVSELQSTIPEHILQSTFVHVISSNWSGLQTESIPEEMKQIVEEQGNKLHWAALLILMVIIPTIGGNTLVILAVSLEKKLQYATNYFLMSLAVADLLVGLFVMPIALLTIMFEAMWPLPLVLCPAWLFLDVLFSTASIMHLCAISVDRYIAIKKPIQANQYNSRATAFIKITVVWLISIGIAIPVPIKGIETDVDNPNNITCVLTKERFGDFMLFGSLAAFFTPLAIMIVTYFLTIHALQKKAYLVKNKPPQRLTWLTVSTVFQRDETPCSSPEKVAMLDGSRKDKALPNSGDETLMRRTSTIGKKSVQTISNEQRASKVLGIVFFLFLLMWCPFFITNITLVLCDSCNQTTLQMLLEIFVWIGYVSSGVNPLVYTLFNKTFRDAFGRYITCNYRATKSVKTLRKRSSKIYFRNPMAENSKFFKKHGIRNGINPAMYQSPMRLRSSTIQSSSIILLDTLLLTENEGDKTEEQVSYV
pKi: −log10 of the molar value.
Where pKi equals or exceeds 7, the correct label is yes (1); where it does not, the label is no (0).

Here are 3 compounds together with their reported answers.
smiles_code=Cc1cccc(CNCCc2c[nH]c3ccccc23)c1 class_name="yes (1)"
smiles_code=COc1ccc(CNCCc2c[nH]c3ccccc23)cc1OC class_name="no (0)"
smiles_code=Brc1cccc(CNCCc2c[nH]c3ccccc23)c1 class_name="yes (1)"

Task: // inclusive: pKi at least 7? input: COc1ccc2[nH]cc(CCNCc3ccccc3)c2c1
Output: yes (1)

Task: Hi, just wondering whether O=[N+]([O-])c1ccc(O)c(CNCCc2c[nH]c3ccccc23)c1 shows pKi of 7 or higher.
Output: no (0)

Task: Entry COc1ccc(Cl)cc1CNCCc1c[nH]c2ccccc12 : is its pKi no less than 7?
Output: no (0)

Task: Threshold query (pKi >= 7) on Oc1c(Br)cc(Br)cc1CNCCc1c[nH]c2ccccc12
Output: no (0)
